- EXPERIMENTAL_SYSTEM: CFH18-20 (human complement factor H CCP18-20) with myc tag and His-tag (human) (UniProt P08603)
- Sequence (P08603 1046-1231): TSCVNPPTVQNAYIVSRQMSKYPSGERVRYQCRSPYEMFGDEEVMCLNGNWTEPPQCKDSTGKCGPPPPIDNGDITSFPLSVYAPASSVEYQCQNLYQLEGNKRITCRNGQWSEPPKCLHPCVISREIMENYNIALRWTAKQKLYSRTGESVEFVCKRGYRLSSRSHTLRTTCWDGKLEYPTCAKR
- TEST: ITC; CFH18-20 in the cell (5-15 uM), VHH4 or mutants in the syringe (50-150 uM), 20 injections; PBS pH 7.4, 25 °C; iTC200
Rule: stoichiometry N of 0.9 or more gives label 1; anything lower gives label 0.

Data request: Check if stoichiometry N >= 0.9 (inclusive). Item: VHH4 P102A (VHH) VHH: QVQLVESGGGLVQAGGSLRLSCAASGLTVDDYAIGWFRQAPGKEREGVSCISSSNGSTYYADSVKGRFTISSDNAKNTAYLQMNSLKPEDTAVYYCAAAVSANLECGTGPFGIYASYYGMDYWGQGTQVTVSS
Data returned: label 1

Data request: Check if stoichiometry N >= 0.9 (inclusive). Item: VHH4 P110A (VHH) VHH: QVQLVESGGGLVQAGGSLRLSCAASGLTVDDYAIGWFRQAPGKEREGVSCISSSNGSTYYADSVKGRFTISSDNAKNTAYLQMNSLKPEDTAVYYCAAAVSPNLECGTGAFGIYASYYGMDYWGQGTQVTVSS
Data returned: label 0

Data request: Check if stoichiometry N >= 0.9 (inclusive). Item: VHH4 W123A (VHH) VHH: QVQLVESGGGLVQAGGSLRLSCAASGLTVDDYAIGWFRQAPGKEREGVSCISSSNGSTYYADSVKGRFTISSDNAKNTAYLQMNSLKPEDTAVYYCAAAVSPNLECGTGPFGIYASYYGMDYAGQGTQVTVSS
Data returned: label 0

Data request: Check if stoichiometry N >= 0.9 (inclusive). Item: VHH4 Y117A (VHH) VHH: QVQLVESGGGLVQAGGSLRLSCAASGLTVDDYAIGWFRQAPGKEREGVSCISSSNGSTYYADSVKGRFTISSDNAKNTAYLQMNSLKPEDTAVYYCAAAVSPNLECGTGPFGIYASAYGMDYWGQGTQVTVSS
Data returned: label 1

Data request: Check if stoichiometry N >= 0.9 (inclusive). Item: VHH4 G119A (VHH) VHH: QVQLVESGGGLVQAGGSLRLSCAASGLTVDDYAIGWFRQAPGKEREGVSCISSSNGSTYYADSVKGRFTISSDNAKNTAYLQMNSLKPEDTAVYYCAAAVSPNLECGTGPFGIYASYYAMDYWGQGTQVTVSS
Data returned: label 0

Data request: Check if stoichiometry N >= 0.9 (inclusive). Item: VHH4 Y95A (VHH) VHH: QVQLVESGGGLVQAGGSLRLSCAASGLTVDDYAIGWFRQAPGKEREGVSCISSSNGSTYYADSVKGRFTISSDNAKNTAYLQMNSLKPEDTAVYACAAAVSPNLECGTGPFGIYASYYGMDYWGQGTQVTVSS
Data returned: label 0
